# measured.target: T1, His6-SAV576 (TetR family regulator) (Streptomyces avermitilis ATCC31267, UniProt Q82QD4 1-218)
# T1 sequence: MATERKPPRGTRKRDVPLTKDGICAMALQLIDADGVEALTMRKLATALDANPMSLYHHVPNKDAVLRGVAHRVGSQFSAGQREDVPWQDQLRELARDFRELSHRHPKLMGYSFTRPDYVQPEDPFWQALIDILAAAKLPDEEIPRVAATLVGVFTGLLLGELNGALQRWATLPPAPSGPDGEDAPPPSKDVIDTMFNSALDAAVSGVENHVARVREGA
# assay.explanation: EMSA; EMSA: Roche DIG Gel Shift Kit binding buffer (composition not stated), 0.3 nM probe, 1 µg poly[d(I-C)] in 20 µl, 25°C 30 min, 5% PAGE 0.5x TBE; footprinting: 400 ng DNA in 50 µl, 25°C 30 min, DNase I at 37°C
# assay.conditions: protein: recombinant; tags: His6 (pET-28a); chain copies: 2; label: 3' DIG; blunt
measurement.name: binding result

binder | measurement.name | observed.value
probe 6 (dsDNA) DNA 1: AGTCGCCATACGCTGTACGGTACCAGCGCCCGCGGCACTGCGG DNA 2: CCGCAGTGCCGCGGGCGCTGGTACCGTACAGCGTATGGCGACT | binding result | binds
probe 2m (dsDNA) DNA 1: CCCAGGTCTGCCGATTGAGTTTCGAATTCTAAGCTTGTACTAC DNA 2: GTAGTACAAGCTTAGAATTCGAAACTCAATCGGCAGACCTGGG | binding result | no binding
probe 2 (dsDNA) DNA 1: CCCAGGTCTGCCGATTGAGTTTCCATACGTCGTATGGTACTAC DNA 2: GTAGTACCATACGACGTATGGAAACTCAATCGGCAGACCTGGG | binding result | binds
probe 6m (dsDNA) DNA 1: AGTCGCGAATTCCAAGCTTGTACCAGCGCCCGCGGCACTGCGG DNA 2: CCGCAGTGCCGCGGGCGCTGGTACAAGCTTGGAATTCGCGACT | binding result | no binding
probe 1m (dsDNA) DNA 1: TGAAGCGAATTCGAAGCTTGAAACGGGGCGCTGCCGTACCGGC DNA 2: GCCGGTACGGCAGCGCCCCGTTTCAAGCTTCGAATTCGCTTCA | binding result | no binding
